Test system: IL-8 secretion from CF lung epithelial cells
Assay: Suppression of constitutive IL-8 secretion from CF lung epithelial cells
Format: cell-based, human
Settings: Homo sapiens, Epithelial cell, constitutive IL-8 hypersecretion, read-out: K50 (concentration causing a 50% reduction of IL-8 secretion)
PROPERTY MEASURED: IC50 (nM)
The reply should be a number in nM, with the unit left off.

{"SMI": "C[C@H]1O[C@@H](O[C@H]2[C@@H](O)C[C@H](O[C@H]3[C@@H](O)C[C@H](O[C@H]4CC[C@@]5(C)[C@H](CC[C@@H]6[C@@H]5C[C@@H](O)[C@]5(C)[C@@H](C7=CC(=O)OC7)CC[C@]65O)C4)O[C@@H]3C)O[C@@H]2C)C[C@H](O)[C@@H]1O", "ASSAYED SYSTEM": "IL-8 secretion from CF lung epithelial cells", "UNIT ABBREVIATION": "nM", "IC50": 27}

Could you now consider this next compound?
IC50 on IL-8 secretion from CF lung epithelial cells for `C[C@]12CC[C@H](O)C[C@H]1CC[C@@H]1[C@@H]2C[C@@H](O)[C@]2(C)[C@@H](C3=CC(=O)OC3)CC[C@]12O` is 34.1
